Assay: logP by HPLC on reversed-phase columns (EEC Directive 79/831 Annex V.A8)
Assay type: physicochemical
Conditions: pH 2.7
Experimental: The logP values were measured in accordance with EEC Directive 79/831 Annex V.A8 by HPLC (High Performance Liquid Chromatography) on reversed-phase columns (C 18) using the methods below: [a] The determination was carried out in the acidic range at pH 2.3 using the mobile phases 0.1% aqueous phosphoric acid and acetronitrile linear gradient from 10% acetonitrile to 95% acetronitrile. [b] […]
Under this convention, True denotes log p [b] strictly below 3 and False denotes log p [b] at or above 3.

# compound, label-value
data = [
    ("Clc1cnc(Nc2cccc(C3OCCC(c4ccccc4)O3)c2)nc1NC1CC1 (stereo not drawn) [Example 94]", "True"),
    ("CC1(c2cccc(Nc3ncc(C(F)(F)F)c(NC4CCC4)n3)c2)OCCCO1 [Example 69]", "False"),
    ("CC1(c2cccc(Nc3ncc(C(F)(F)F)c(NC4CC4)n3)c2)OCCCO1 [Example 48]", "False"),
    ("CC1(C)COC(c2cccc(Nc3ncc(C(F)(F)F)c(NC4CC4)n3)c2)OC1 [Example 25]", "False"),
    ("CCOC(OCC)c1cccc(Nc2ncc(Cl)c(NC3CC3)n2)c1 [Example 64]", "True"),
    ("CCC1COC(c2cccc(Nc3ncc(Cl)c(NC4CC4)n3)c2)O1 (stereo not drawn) [Example 7]", "True"),
    ("CCC1COC(c2cccc(Nc3ncc(C(F)(F)F)c(NC4CC4)n3)c2)O1 (stereo not drawn) [Example 88]", "False"),
]

====

assay: logP by HPLC on reversed-phase columns (EEC Directive 79/831 Annex V.A8); type: physicochemical; details: pH 7.8

# compound, log p [c]
measured = [
    ("CC(C)(C)OCC1COC(c2cccc(Nc3ncc(Cl)c(NC4CC4)n3)c2)O1 (stereo not shown) [Example 95]", 4.08),
    ("CCCCCCC1COC(c2cccc(Nc3ncc(Cl)c(NC4CC4)n3)c2)O1 (stereo not shown) [Example 38]", 5.29),
    ("CC1(C)COC(c2cccc(Nc3ncc(C(F)(F)F)c(NC4CCC4)n3)c2)OC1 [Example 26]", 4.62),
    ("CC1OC(c2cccc(Nc3ncc(Cl)c(NC4CC4)n3)c2)OC(C)C1C (stereo not shown) [Example 98]", 4.21),
    ("Fc1cnc(Nc2cccc(C3OCCO3)c2)nc1NC1CC1 [Example 59]", 2.28),
    ("FC(F)CNc1nc(Nc2cccc(C3OCCCO3)c2)ncc1Cl [Example 52]", 2.68),
    ("SCCOC(OCCS)c1cccc(Nc2ncc(Cl)c(NC3CC3)n2)c1 [Example 4]", 2.03),
    ("Ic1cnc(Nc2cccc(C3OCCO3)c2)nc1NC1CC1 [Example 49]", 3.02),
    ("CC1COC(c2cccc(Nc3ncc(Cl)c(NC4CC4)n3)c2)OC1 (stereo not shown) [Example 101]", 3.35),
    ("CCC1COC(c2cccc(Nc3ncc(C(F)(F)F)c(NC4CC4)n3)c2)O1 (stereo not shown) [Example 88]", 3.9),
    ("C=C1COC(c2cccc(Nc3ncc(Br)c(NC4CC4)n3)c2)OC1 [Example 81]", 3.27),
    ("C=C1COC(c2cccc(Nc3ncc(Br)c(NC4CCC4)n3)c2)OC1 [Example 82]", 3.85),
    ("CC1COC(c2cccc(Nc3ncc(C(F)(F)F)c(NC4CCC4)n3)c2)O1 (stereo not shown) [Example 87]", 4.04),
    ("Clc1cnc(Nc2cccc(C3OCCC(c4ccccc4)O3)c2)nc1NC1CC1 (stereo not shown) [Example 94]", 4.11),
    ("C=CCOCC1COC(c2cccc(Nc3ncc(Br)c(NC4CCC4)n3)c2)O1 (stereo not shown) [Example 117]", 4.24),
    ("CN(c1nc(Nc2cccc(C3OCCO3)c2)ncc1Cl)C1CC1 [Example 23]", 3.45),
    ("CC1COC(c2cccc(Nc3ncc(Br)c(NC4CC4)n3)c2)O1 (stereo not shown) [Example 84]", 3.25),
    ("FC(F)CNc1nc(Nc2cccc(C3OCCO3)c2)ncc1Cl [Example 60]", 2.55),
    ("CC1(C)COC(c2cccc(Nc3ncc(Cl)c(NC4CCC4)n3)c2)OC1 [Example 19]", 4.13),
    ("FC(F)(F)c1cnc(Nc2cccc(C3OC4COCC4O3)c2)nc1NC1CCC1 (stereo not shown) [Example 112]", 3.37),
    ("Clc1cnc(Nc2cccc(C3OCCO3)c2)nc1NCC1CC1 [Example 18]", 3.06),
    ("CC1COC(c2cccc(Nc3ncc(Cl)c(NC4CCC4)n3)c2)O1 (stereo not shown) [Example 86]", 3.68),
    ("COCC1COC(c2cccc(Nc3ncc(C(F)(F)F)c(NC4CC4)n3)c2)O1 (stereo not shown) [Example 105]", 3.23),
    ("C=CCOCC1COC(c2cccc(Nc3ncc(C(F)(F)F)c(NC4CC4)n3)c2)O1 (stereo not shown) [Example 108]", 3.79),
    ("CC1(c2cccc(Nc3ncc(C(F)(F)F)c(NC4CC4)n3)c2)OCCCO1 [Example 48]", 3.64),
    ("C=C1COC(c2cccc(Nc3ncc(Cl)c(NC4CC4)n3)c2)OC1 [Example 92]", 3.18),
    ("CC1COC(C)(c2cccc(Nc3ncc(C(F)(F)F)c(NC4CC4)n3)c2)O1 (stereo not shown) [Example 72]", 3.94),
    ("Ic1cnc(Nc2cccc(C3OCCCO3)c2)nc1NC1CC1 [Example 57]", 3.18),
    ("O=[N+]([O-])c1ccccc1C1COC(c2cccc(Nc3ncc(Cl)c(NC4CC4)n3)c2)O1 (stereo not shown) [Example 37]", 4),
    ("OCC1COC(c2cccc(Nc3ncc(Cl)c(NC4CC4)n3)c2)O1 (stereo not shown) [Example 42]", 1.96),
    ("CC1(C)COC(C)(c2cccc(Nc3ncc(C(F)(F)F)c(NC4CC4)n3)c2)OC1 [Example 73]", 4.7),
    ("C=CCOCC1COC(c2cccc(Nc3ncc(Cl)c(NC4CCC4)n3)c2)O1 (stereo not shown) [Example 116]", 4.07),
    ("CC1(C)CCOC(c2cccc(Nc3ncc(Cl)c(NC4CC4)n3)c2)O1 (stereo not shown) [Example 100]", 3.57),
    ("Clc1cnc(Nc2cccc(C3OCCCS3)c2)nc1NC1CC1 (stereo not shown) [Example 127]", 3.33),
]
